# PBM binding z-score per entry
# Tested on: PPARg:RXRa 270nM:90nM, anti-RXR (NR concentration 270 nM, RXRa partner concentration 90 nM)
# protocolText: PBM binding z-score (relative to random genomic background probes); higher = stronger binding; sequences stand for … in GC…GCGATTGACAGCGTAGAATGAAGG

{"chainSequence": "TCTCGGAGGACACGAAAGGACAGAGCTCGACATC", "PBM binding z-score": 0.751}
{"chainSequence": "CCTACTGGCCCAAAAAGGTCATTGATGCCGATAA", "PBM binding z-score": 2.89}
{"chainSequence": "AATACAGGGTCATCGGAGGCCAGAGTACGCACAG", "PBM binding z-score": 6.12}
{"chainSequence": "ACTATTAGTTGAGACGAGGGCAACCCATAGGTTG", "PBM binding z-score": 0.162}
{"chainSequence": "ATCTCTAGGTAAAAGTTCAGTGATTCCCGAGGAT", "PBM binding z-score": 7.11}
{"chainSequence": "CGTCCAATGTCAGCAGGTCAGTGAAAGCGACGTG", "PBM binding z-score": 0.0995}
{"chainSequence": "ATCGAAAGGTCTACGAGGTGAGTATACACCGTTT", "PBM binding z-score": 0.573}
{"chainSequence": "GCGACTGGGGCAAAGCAGGTGACCATAAGGTTGG", "PBM binding z-score": 1.27}
{"chainSequence": "CCTCGGCGGACAACAGGAGGTCAGAGCTGCCAGA", "PBM binding z-score": 0.0174}
{"chainSequence": "TCTTGTAGATCTATAGAGGTTAAGAAAGTGCGCT", "PBM binding z-score": 1.62}
{"chainSequence": "ACTATTAGTTGAGACGAGGGCAACCGGTAGGTTG", "PBM binding z-score": -0.0601}
{"chainSequence": "GCTTGTAGATCAAGGTTAGGAAAGACTAAGCTAA", "PBM binding z-score": 0.548}
{"chainSequence": "TCATATAGGTAAACAGATGAAAGTCCGTAAGTTA", "PBM binding z-score": 2.08}
{"chainSequence": "CCTCGGAGTACAGAAGGTCAGAGCTGTCCGCTTT", "PBM binding z-score": 0.921}
{"chainSequence": "ACAAGCAGGCCAAGTTTGGGTCACTCAAACAAAG", "PBM binding z-score": 0.443}
{"chainSequence": "CGTCAAAGTTCAATTAAGGTAACGTAAAGCACGC", "PBM binding z-score": 4.67}
{"chainSequence": "AGTCAAAGTTCATCTATGTAACGTAAGATATGCT", "PBM binding z-score": 5.9}
{"chainSequence": "ATACCAAGCTGATCGTGAGGTCGTTGATACTAAC", "PBM binding z-score": -0.0256}
{"chainSequence": "CAAACTAGATCACGAAAGGTCAAAGTCGAATGAC", "PBM binding z-score": 5.04}
{"chainSequence": "CTACCAAGGTGAACGAGGTCGTTGATTACTATTC", "PBM binding z-score": 1.48}
{"chainSequence": "ACTATGAGTTGACTTAGGGCAACCGATACGACGC", "PBM binding z-score": 0.524}

----------
# Test system: RARa:RXR (NR concentration 270 nM, RXRa partner concentration 90 nM)
# protocolText: PBM binding z-score (relative to random genomic background probes); higher = stronger binding; sequences stand for … in GC…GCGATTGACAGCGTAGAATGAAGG
# PBM binding z-score per entry

{"chainSequence": "ATCTCTAGGTAAAGATAATTCAGTGAATGCAAAT", "PBM binding z-score": 0.441}
{"chainSequence": "TCTCGGAGGACACGAAGGTCATAGCTTTCCAGAG", "PBM binding z-score": 3.59}
{"chainSequence": "TCGAGTAGGTTACCAAGGGGGCATTCAGCTTTCT", "PBM binding z-score": 2.6}
{"chainSequence": "GCAGACAGGTGAAACGCCGGTAACTCAGGGTGGC", "PBM binding z-score": 0.0984}
{"chainSequence": "ACTAGTTGGTCAACTGAGGTCACACACAATTCGG", "PBM binding z-score": 4.59}
{"chainSequence": "CCTTACGAGTCACGAGGTTATAGCACGACGAGCG", "PBM binding z-score": 1.79}
{"chainSequence": "CCTTACGGGTCACTCGAGGTTATAGCATCGGAGT", "PBM binding z-score": 3.69}
{"chainSequence": "TCTAGCAGGCCAGAGGGTCACTCTAGAGGTACGG", "PBM binding z-score": 2.07}
{"chainSequence": "ATACCAAGGCGATCGTGAGGTCGTTGATACTAAC", "PBM binding z-score": 1.12}
{"chainSequence": "GCTGCGAGGTCAGGTTGGTCAGCTAACGGGTACG", "PBM binding z-score": 3.39}
{"chainSequence": "CAGACTAGGTCACCGGAAGGTCAAAGTCCGCATG", "PBM binding z-score": 6.81}
{"chainSequence": "GCTAGCAGGACATTTGGGTCACTCAATGACGGGC", "PBM binding z-score": 0.611}
{"chainSequence": "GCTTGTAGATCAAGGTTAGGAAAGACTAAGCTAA", "PBM binding z-score": -0.0199}
{"chainSequence": "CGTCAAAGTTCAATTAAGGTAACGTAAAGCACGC", "PBM binding z-score": 3.88}
{"chainSequence": "ATCTCTAGGTAAGACTCAGTTCACTGAAGAACGC", "PBM binding z-score": 1.01}
{"chainSequence": "TCATAAAGGTAAAGGTGAAAGTCGAACGATATGA", "PBM binding z-score": 2.37}
{"chainSequence": "ACTTACGCGTCAACGAGGTTATAGCACGCGTATA", "PBM binding z-score": 1.15}
{"chainSequence": "ATACCAAGGTGATCGTAAGGTCGTTGATACTAAC", "PBM binding z-score": 2.19}
{"chainSequence": "ATACCAAGGTGATCCTGAGGTCGTTGATACTAAC", "PBM binding z-score": 2.34}
{"chainSequence": "CGTCCAAGGTCAATACTAGGTCAGTGAAAGCATT", "PBM binding z-score": 5.42}
{"chainSequence": "TCTGCTAGGTCAACCATGGTCAGCTAATCTGCTA", "PBM binding z-score": 2.3}
{"chainSequence": "CAAACTAGGTCAAGAGGTCAACGTCCGCTTCCCG", "PBM binding z-score": 7.72}
{"chainSequence": "GCGACTGGGGCATCAGCAGGTTACCGTAACTTAA", "PBM binding z-score": 0.398}
{"chainSequence": "CCGACTCGGGCAAGGTTACCATAACGCACAGCCA", "PBM binding z-score": 0.655}
{"chainSequence": "ACTATTAGTTGACTTCGGGCAACCGATACGACGC", "PBM binding z-score": 0.411}
{"chainSequence": "CAAACTAGGTCACCCGAAGGTCAAAGTCCGCATG", "PBM binding z-score": 7.7}
{"chainSequence": "ACTAGCAGGCCAAGTTTGGGTCACCCAAACAAAG", "PBM binding z-score": 1.89}
{"chainSequence": "ATACCAAGGTGATCGTGAGGTCCTTGATACTAAC", "PBM binding z-score": 0.662}
{"chainSequence": "TATGCAGGGTCAAAGGCCAGAGTACGAATGTCGA", "PBM binding z-score": 6.18}
{"chainSequence": "TCTTTTAGATCAGCAGGTTAAGAAAGCTGGCCAA", "PBM binding z-score": 0.753}
{"chainSequence": "CCTCGGAGGACAACAGGAGGTCAGACCTGCCAGA", "PBM binding z-score": 2.19}
{"chainSequence": "TCTTGTAGATCAAAAGTTAAGAAAGCCGAAGCCT", "PBM binding z-score": 0.155}
{"chainSequence": "ACAGACAGGTGAGTGAAGGTAGCTCAGCTGGACG", "PBM binding z-score": -0.193}
{"chainSequence": "GCTAGTAGTTGAAAGGGCAACCGAATGATTCTCG", "PBM binding z-score": 1.47}
{"chainSequence": "ATCTCTAGGTAAATTTCAGTGAAAGATCGATAGA", "PBM binding z-score": 0.745}
{"chainSequence": "GCTAGTTGGTCAGTAAAAGGTCACAAACCGGTCG", "PBM binding z-score": 5.58}
{"chainSequence": "TTAGCAAGGTGAGCTGAGGTCGTTGATCCAACTC", "PBM binding z-score": 2.28}
{"chainSequence": "CCAGACAGGTGAGATGGTAACTCAGCCTCGATTA", "PBM binding z-score": -0.347}
{"chainSequence": "TCTATTAGTTGAAGCGCAACCGACGAGTCCGTTT", "PBM binding z-score": 0.126}
{"chainSequence": "CCTTACGGGTCACGAGGATATAGCACGACGAGCG", "PBM binding z-score": 4.41}
{"chainSequence": "CAGCCTAGGTCAGGGACAGTATAGGAGGAACGTT", "PBM binding z-score": 1.22}
{"chainSequence": "CCTTACGGGTCACGAGGTTAAAGCACGACGAGCG", "PBM binding z-score": 6.28}
{"chainSequence": "CCTACTGGGCCATTCAGAGGTCGTTGATCATATG", "PBM binding z-score": 1.27}
